Tested on: c-Src
Test: phosphorylation enrichment, bacterial display (enrichment ratio); higher = better substrate or ligand; peptides without Tyr show the background;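 further: 11-residue human phosphosite peptides and single-mutation variants displayed on the E. coli surface, counted by deep sequencing, each peptide's frequency after selection divided by its frequency in the unselected input library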;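 further: frequency after pTyr selection over input frequency; kinase dosed for 20-30% of maximal phosphorylation in three min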
So basically: phosphorylation enrichment at 0.9 or higher? That is fulfilled. Lower than 0.9? That is not fulfilled.

Examples with answers:
Tell me whether phosphorylation enrichment is at least 0.9 here: GKFHMYVAVWT [F13A1_Y161_R159H]
not fulfilled

Please tell me: is the sequence YFCRWYRNRKS [EREG_Y144] at or over 0.9 in terms of phosphorylation enrichment?
not fulfilled

Is it the case that PLDGEHFTLQI [TP53_Y327_Y327H] has phosphorylation enrichment reaching or exceeding 0.9?
not fulfilled

***
Quick check, phosphorylation enrichment >= 0.9? ETGEPCRLSPE [EIF4G1_Y311_Y311C]
not fulfilled

Given RENGPYYTSYP [GDAP2_Y487] , state whether its phosphorylation enrichment is at least 0.9.
fulfilled

Please check the record FSMGCYEISLG [HMGCL_Y198_YF] and state if its phosphorylation enrichment is at or above 0.9.
fulfilled

I'd appreciate it if you could say whether EKLIQYCQSKG [AKR1B1_Y199] has phosphorylation enrichment at least equal to 0.9.
not fulfilled

Check the entry DDKEFYSVHNK [MET_Y1235_Y1230D_YF] : does phosphorylation enrichment equal or exceed 0.9?
not fulfilled

For this sequence, is measured phosphorylation enrichment 0.9 or higher? EFFDGYWEFSV [ITGA2B_Y265_G267E_YF]
fulfilled

Would you say DLDFTYIFPNI [PTEN_Y27_L25F_YF] shows phosphorylation enrichment at minimum 0.9?
fulfilled

---

Biological target: Fes (UniProt P07332)
Sequence (P07332 whole entry, looked up): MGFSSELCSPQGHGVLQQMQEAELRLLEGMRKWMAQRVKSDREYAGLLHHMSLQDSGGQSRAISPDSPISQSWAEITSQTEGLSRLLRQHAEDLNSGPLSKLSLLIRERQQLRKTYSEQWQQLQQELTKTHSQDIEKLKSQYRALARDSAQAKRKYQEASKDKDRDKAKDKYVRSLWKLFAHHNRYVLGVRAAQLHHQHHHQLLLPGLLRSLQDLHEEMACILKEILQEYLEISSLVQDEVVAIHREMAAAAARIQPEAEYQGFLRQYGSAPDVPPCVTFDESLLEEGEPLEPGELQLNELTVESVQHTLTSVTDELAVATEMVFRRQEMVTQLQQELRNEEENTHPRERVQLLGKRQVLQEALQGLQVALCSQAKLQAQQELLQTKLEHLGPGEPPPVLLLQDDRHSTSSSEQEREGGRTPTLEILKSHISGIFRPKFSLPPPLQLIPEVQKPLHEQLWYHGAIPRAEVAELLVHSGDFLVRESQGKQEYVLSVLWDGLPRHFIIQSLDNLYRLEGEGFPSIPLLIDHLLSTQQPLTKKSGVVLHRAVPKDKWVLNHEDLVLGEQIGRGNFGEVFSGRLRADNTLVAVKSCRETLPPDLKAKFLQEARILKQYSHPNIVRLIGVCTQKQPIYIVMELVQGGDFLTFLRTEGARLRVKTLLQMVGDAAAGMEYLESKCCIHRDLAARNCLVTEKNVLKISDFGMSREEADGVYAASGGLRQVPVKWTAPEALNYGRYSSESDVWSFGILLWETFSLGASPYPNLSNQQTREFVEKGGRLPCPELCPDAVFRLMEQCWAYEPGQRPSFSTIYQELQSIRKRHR
Assay: phosphorylation enrichment, bacterial display (enrichment ratio); higher = better substrate or ligand; peptides without Tyr show the background
endpoint_name: phosphorylation enrichment
Answers are plain numbers.

Guide cases for phosphorylation enrichment, answers given:
Short answer for ENRKFYMDLKE [PURA_Y156_YF] : phosphorylation enrichment was 0.989

The sequence KQRKEYMHRWQ [IQGAP2_Y710_R714W] showed phosphorylation enrichment equal to 1.02

Return reported phosphorylation enrichment values for all items listed beneath this line.
1. HIAKVYRRDNP [HARS1_Y156]
2. SRVTQYERNFE [SNX1_Y463_D466N]
3. NHYKRYNLCAE [PTEN_Y68_I67R]
4. CTTIHYNFRCN [TP53_Y234_M237R_YF]
5. EEEYEYMNRRR [ERBB3_Y1199_D1194E]
6. DFRTTYVNANE [KCNH2_Y475_N470D]

0.989
0.813
0.82
0.804
0.804
0.781

Required: phosphorylation enrichment, one value per sequence below.
1. CTTIHYNFMCT [TP53_Y234_N239T_YF]
2. IENKLYGMSDP [RET_Y1062]

1: 1.01; 2: 0.988

---

Tested on: Fer (mouse)
Assay: phosphorylation enrichment, bacterial display (enrichment ratio); higher = better substrate or ligand; peptides without Tyr show the background
endpoint_name: phosphorylation enrichment
Give bare numbers.

As a guide, the following entries are already answered.
Entry RAADYYSQQMA [GBP6_Y334] ; phosphorylation enrichment = 0.416

Lab book: phosphorylation enrichment of KYVVVYFREID [IL17RB_Y447] noted as 0.591

So for YSPCDYQPCLA [TNS1_Y798_Y796C] , the logged phosphorylation enrichment turned out to be 2.44

phosphorylation enrichment reading for YPLELYERVRM [PRKCG_Y312] : 3.71

Record KPLMPYMRFSR [SMARCE1_Y73_YF] . Reported phosphorylation enrichment: 0.352

Kindly note the recorded phosphorylation enrichment for GREEFYSTHPH [LRRK2_Y1402] , which is 0.528

Item: GHEFIYVDPMQ [PDGFRA_Y574_YF] | phosphorylation enrichment: 1.91

Value of measured phosphorylation enrichment for the entry QNTGYYYDLYG [PTPN11_Y62_D61Y] : 4.32

API: the following record is the query input.
# sequence SRIWVYNHFRW [BRCA2_Y2621_YF] ; its phosphorylation enrichment = 0.413
